This section presents compounds with their documented IC50 values.
Test system: RKO
Assay: growth inhibition assay, NF1 mutant cell line
Assay type: cell-based
Conditions: Homo sapiens, colon
Please reply with the bare figure in nM and do not write the unit itself.

Examples with their reported IC50 follow.
# test.smiles, measurement.unit, IC50
measured = [
    ("Cc1nc(NC(=O)N2CCC[C@H]2C(N)=O)sc1-c1ccnc(C(C)(C)C(F)(F)F)c1", "nM", 2700),
    ("CC(C)(C)NCCNc1ccc(-c2nnc(C(F)(F)F)o2)nc1C1CCN(c2ncnc3c2C(C)(C)C(=O)N3)CC1", "nM", 118),
]

Prompt line: Any idea what its IC50 is? The compound is "CC(=O)Nc1cccc(-n2c(=O)n(C3CC3)c(=O)c3c(Nc4ccc(I)cc4F)n(C)c(=O)c(C)c32)c1"
Response line: 40
